Assay: Cytotoxicity against human SH-SY5Y cells assessed as cell survival at 100 uM after 24 hrs by MTT assay relative to control
Type: cell-based
Details: read-out: Survival
Assignment: determine reported viability at 24 h, 100 µM for the given molecules.
Report the value in % with no unit label.

Ask: Sample COc1cccc(/C=C/c2ccc3c(c2)OCO3)c1 — what was its viability at 24 h, 100 µM?
Result: 72.5

Ask: Sample COc1ccc(/C=C/c2ccc(NC(C)=O)cc2)cc1OC — what was its viability at 24 h, 100 µM?
Result: 68

Ask: Sample CC(=O)Nc1ccc(/C=C/c2ccc3c(c2)OCO3)cc1 — what was its viability at 24 h, 100 µM?
Result: 97

Ask: Sample O=C(Nc1ccc(/C=C/c2ccc3c(c2)OCO3)cc1)C1CC1 — what was its viability at 24 h, 100 µM?
Result: 98.9

Ask: Sample COc1cc(/C=C/c2ccc(O)cc2)cc(OC)c1OC — what was its viability at 24 h, 100 µM?
Result: 27.5

Ask: Sample O=C(Nc1ccc(/C=C/c2ccc3c(c2)OCO3)cc1)C(F)(F)F — what was its viability at 24 h, 100 µM?
Result: 75.2

Ask: Sample COc1ccc(C(=O)/C=C/c2ccc3c(c2)OCO3)c(O)c1 — what was its viability at 24 h, 100 µM?
Result: 90.4

Ask: Sample Oc1ccc(/C=C/c2cccc(OC(F)(F)F)c2)cc1 — what was its viability at 24 h, 100 µM?
Result: 77.1

Ask: Sample Oc1ccc(/C=C/c2cc(F)cc(F)c2)cc1 — what was its viability at 24 h, 100 µM?
Result: -13.6

Ask: Sample CC(=O)Oc1ccc(/C=C/c2ccc3c(c2)OCO3)cc1 — what was its viability at 24 h, 100 µM?
Result: 84.5

Ask: Sample CC(=O)Nc1ccc(C#Cc2ccc3c(c2)OCO3)cc1 — what was its viability at 24 h, 100 µM?
Result: 63.2

Ask: Sample CN(C)c1ccc(/C=C/c2ccc3c(c2)OCO3)cc1 — what was its viability at 24 h, 100 µM?
Result: 83.3

Ask: Sample CC(=O)Nc1ccc(/C=C/c2ccc3c(c2)OCO3)cc1F — what was its viability at 24 h, 100 µM?
Result: 86.7

Ask: Sample Oc1ccc(/C=C/c2ccc(Cl)cc2)cc1O — what was its viability at 24 h, 100 µM?
Result: 107

Ask: Sample COc1ccc(/C=C/c2ccc(O)cc2)cc1OC — what was its viability at 24 h, 100 µM?
Result: 56.8

Ask: Sample Oc1ccc(/C=C/c2ccc3c(c2)OCO3)cc1 — what was its viability at 24 h, 100 µM?
Result: 39.5

Ask: Sample C(#Cc1ccc2c(c1)OCO2)c1ccsc1 — what was its viability at 24 h, 100 µM?
Result: 46.2

Ask: Sample N#Cc1cccc(/C=C/c2ccc(O)cc2)c1 — what was its viability at 24 h, 100 µM?
Result: 20.9

Ask: Sample COc1ccc(C#Cc2cc(C)cc(C)c2)cc1 — what was its viability at 24 h, 100 µM?
Result: 54.2

Ask: Sample Nc1ccc(/C=C/c2cccc(OC(F)(F)F)c2)cc1 — what was its viability at 24 h, 100 µM?
Result: 51.8

Ask: Sample CC(=O)Oc1ccc(/C=C/c2cc(C)cc(C)c2)cc1 — what was its viability at 24 h, 100 µM?
Result: 3.24

Ask: Sample O=C(Nc1ccc(/C=C/c2ccc3c(c2)OCO3)cc1)c1cccs1 — what was its viability at 24 h, 100 µM?
Result: 62.5

Ask: Sample COc1ccc(/C=C/c2ccc3c(c2)OCO3)cc1 — what was its viability at 24 h, 100 µM?
Result: 76.1

Ask: Sample COc1cc(/C=C/c2ccc(OC(C)=O)cc2)cc(OC)c1 — what was its viability at 24 h, 100 µM?
Result: 6.48

Ask: Sample COc1ccc(C#Cc2ccc3c(c2)OCO3)cc1 — what was its viability at 24 h, 100 µM?
Result: 75.9

Ask: Sample COc1ccccc1/C=C/c1ccc2c(c1)OCO2 — what was its viability at 24 h, 100 µM?
Result: 36.1
